Target: UniProt P20813
Sequence (P20813 1-491): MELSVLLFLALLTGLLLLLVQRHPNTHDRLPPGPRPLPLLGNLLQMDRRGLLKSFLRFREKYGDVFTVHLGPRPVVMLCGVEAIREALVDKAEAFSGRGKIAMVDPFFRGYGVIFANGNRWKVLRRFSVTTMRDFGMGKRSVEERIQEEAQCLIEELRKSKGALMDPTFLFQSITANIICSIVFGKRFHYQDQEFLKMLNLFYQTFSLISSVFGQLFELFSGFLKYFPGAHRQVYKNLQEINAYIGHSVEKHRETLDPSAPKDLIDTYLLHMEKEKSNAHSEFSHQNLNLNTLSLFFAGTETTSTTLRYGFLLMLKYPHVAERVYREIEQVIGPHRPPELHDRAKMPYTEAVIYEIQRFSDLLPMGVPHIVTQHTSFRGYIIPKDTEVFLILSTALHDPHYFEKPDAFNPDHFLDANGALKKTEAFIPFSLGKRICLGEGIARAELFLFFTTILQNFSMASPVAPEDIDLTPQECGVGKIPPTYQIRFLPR
Assay: Direct inhibition of CYP isoforms in HLM
Quantity name: IC50

Ask | Identify measured IC50 associated with Cc1ncc([N+](=O)[O-])n1CC(C)O (stereo not shown)
Reply | > 5 mM

====

Target: CYP2B6 (Homo sapiens, UniProt P20813)
Assay: Time-dependent inhibition of CYP isoforms in HLM
Quantity name: IC50

Ask | Fill in IC50 for record Cc1ncc([N+](=O)[O-])n1CC(C)O (stereo not shown) [secnidazole]
Reply | > 500 µM

====

Target: CYP1A2 (Homo sapiens, UniProt P05177)
Sequence (P05177 1-516): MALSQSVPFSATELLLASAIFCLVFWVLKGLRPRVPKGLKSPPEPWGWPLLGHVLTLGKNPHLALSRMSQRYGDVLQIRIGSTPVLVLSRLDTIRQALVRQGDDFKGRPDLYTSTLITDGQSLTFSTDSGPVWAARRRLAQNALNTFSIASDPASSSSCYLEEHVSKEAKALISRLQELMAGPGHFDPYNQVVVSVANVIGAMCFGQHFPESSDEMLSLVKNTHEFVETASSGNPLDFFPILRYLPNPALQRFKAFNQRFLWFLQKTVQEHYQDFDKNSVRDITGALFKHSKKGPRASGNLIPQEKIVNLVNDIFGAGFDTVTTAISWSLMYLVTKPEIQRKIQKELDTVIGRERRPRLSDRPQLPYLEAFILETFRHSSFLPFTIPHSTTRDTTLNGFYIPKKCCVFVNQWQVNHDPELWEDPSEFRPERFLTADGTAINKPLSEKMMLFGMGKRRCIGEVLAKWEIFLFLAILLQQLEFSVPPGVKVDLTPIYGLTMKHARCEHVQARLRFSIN
Test: Direct inhibition of CYP isoforms in HLM
pIC50: −log10 of the molar value.
Quantity name: pIC50

Ask | Answer briefly: pIC50 recorded on CYP1A2 (Homo sapiens, UniProt P05177) for Cc1ncc([N+](=O)[O-])n1CC(C)O (stereo not shown)
Reply | < 2.30

====

Molecular target: CYP2C9 (Homo sapiens, UniProt P11712)
Sequence (P11712 whole entry, canonical isoform): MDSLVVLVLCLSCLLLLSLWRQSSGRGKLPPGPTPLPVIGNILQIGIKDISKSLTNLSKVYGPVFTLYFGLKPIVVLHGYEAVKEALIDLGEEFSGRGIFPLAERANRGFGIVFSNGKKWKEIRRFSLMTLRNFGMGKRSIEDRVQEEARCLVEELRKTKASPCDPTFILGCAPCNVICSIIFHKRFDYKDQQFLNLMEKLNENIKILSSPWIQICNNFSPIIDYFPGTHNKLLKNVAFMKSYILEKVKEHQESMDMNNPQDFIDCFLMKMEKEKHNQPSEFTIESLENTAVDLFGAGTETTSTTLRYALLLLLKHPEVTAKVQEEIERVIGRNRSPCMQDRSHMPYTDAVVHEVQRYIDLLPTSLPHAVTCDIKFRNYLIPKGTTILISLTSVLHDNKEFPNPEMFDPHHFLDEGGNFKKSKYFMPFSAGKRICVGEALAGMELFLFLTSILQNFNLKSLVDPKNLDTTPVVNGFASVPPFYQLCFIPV
Test: Direct inhibition of CYP isoforms in HLM
pIC50: −log10 of the molar value.
Quantity name: pIC50

Ask | Find the measured pIC50 of Cc1ncc([N+](=O)[O-])n1CC(C)O (stereo not shown) [secnidazole] and report it.
Reply | < 2.30

====

Target: UniProt:P10635
Test: Time-dependent inhibition of CYP isoforms in HLM
pIC50: −log10 of the molar value.
Quantity name: pIC50

Ask | Please indicate pIC50 recorded for Cc1ncc([N+](=O)[O-])n1CC(C)O (stereo not shown) [secnidazole]
Reply | < 3.30

====

Tested on: human liver microsomes
Assay: Metabolism of secnidazole in human liver microsomes
Assay type: in vitro ADME
Settings: read-out: Km for M2 formation; rate linear with substrate concentration
Quantity name: Km

Ask | Look up human liver microsomes data: Km of Cc1ncc([N+](=O)[O-])n1CC(C)O (stereo not shown) [secnidazole] , then report it.
Reply | > 6.4 mM

====

Assay: Metabolism of secnidazole in human liver microsomes
Assay type: in vitro ADME
Details: human, human liver microsomes, pH 7.4
Quantity name: Km

Ask | Give recorded Km. Cc1ncc([N+](=O)[O-])n1CC(C)O (stereo not shown)
Reply | > 6.4 mM

====

Biological target: CYP2C8 (Homo sapiens)
Assay: Time-dependent inhibition of CYP isoforms in HLM
pIC50: −log10 of the molar value.
Quantity name: pIC50

Ask | Supply measured pIC50 of Cc1ncc([N+](=O)[O-])n1CC(C)O (stereo not shown) in your reply.
Reply | < 3.30

====

Biological target: CYP2C9 (Homo sapiens, UniProt P11712)
Assay: Time-dependent inhibition of CYP isoforms in HLM
Quantity name: IC50

Ask | Hello, please tell me recorded IC50 for this one: Cc1ncc([N+](=O)[O-])n1CC(C)O (stereo not shown) [secnidazole]
Reply | > 500 µM

====

Molecular target: UniProtKB P11509
Sequence (P11509 1-494): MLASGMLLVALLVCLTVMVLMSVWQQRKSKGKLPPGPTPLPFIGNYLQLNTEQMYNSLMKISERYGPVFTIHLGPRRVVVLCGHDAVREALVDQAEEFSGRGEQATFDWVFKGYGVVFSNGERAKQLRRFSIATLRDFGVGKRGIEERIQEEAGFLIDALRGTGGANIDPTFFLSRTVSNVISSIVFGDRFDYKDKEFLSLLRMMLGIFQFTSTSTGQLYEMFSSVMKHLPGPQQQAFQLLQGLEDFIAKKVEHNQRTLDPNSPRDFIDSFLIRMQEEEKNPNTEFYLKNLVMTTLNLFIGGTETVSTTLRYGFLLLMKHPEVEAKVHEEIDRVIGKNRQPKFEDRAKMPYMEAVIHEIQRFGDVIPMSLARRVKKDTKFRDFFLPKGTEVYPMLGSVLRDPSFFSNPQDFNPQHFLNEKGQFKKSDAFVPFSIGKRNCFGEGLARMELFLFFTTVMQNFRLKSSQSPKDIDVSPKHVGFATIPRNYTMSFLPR
Experiment: Direct inhibition of CYP isoforms in HLM
Quantity name: IC50

Ask | Given Cc1ncc([N+](=O)[O-])n1CC(C)O (stereo not shown) , respond with its IC50.
Reply | > 5 mM

====

Target: CYP2E1 (Homo sapiens, UniProt P05181)
Sequence (P05181 whole entry, canonical isoform): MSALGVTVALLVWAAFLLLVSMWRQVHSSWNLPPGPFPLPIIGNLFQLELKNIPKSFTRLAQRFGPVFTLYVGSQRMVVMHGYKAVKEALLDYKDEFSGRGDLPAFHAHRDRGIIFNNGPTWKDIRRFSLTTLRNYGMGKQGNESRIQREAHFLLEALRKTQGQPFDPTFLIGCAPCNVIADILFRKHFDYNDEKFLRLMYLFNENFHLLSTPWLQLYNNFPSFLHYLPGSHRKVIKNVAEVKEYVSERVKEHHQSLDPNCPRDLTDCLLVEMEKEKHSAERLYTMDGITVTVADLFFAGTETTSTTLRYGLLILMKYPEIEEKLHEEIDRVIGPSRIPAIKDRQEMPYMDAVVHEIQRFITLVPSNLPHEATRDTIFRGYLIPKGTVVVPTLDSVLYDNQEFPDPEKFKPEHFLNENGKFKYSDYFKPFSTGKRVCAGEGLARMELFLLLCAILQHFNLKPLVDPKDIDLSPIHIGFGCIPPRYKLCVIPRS
Test: Time-dependent inhibition of CYP isoforms in HLM
pIC50: −log10 of the molar value.
Quantity name: pIC50

Ask | Recall and state the measured pIC50 for Cc1ncc([N+](=O)[O-])n1CC(C)O (stereo not shown) .
Reply | < 3.30

====

Target sequence: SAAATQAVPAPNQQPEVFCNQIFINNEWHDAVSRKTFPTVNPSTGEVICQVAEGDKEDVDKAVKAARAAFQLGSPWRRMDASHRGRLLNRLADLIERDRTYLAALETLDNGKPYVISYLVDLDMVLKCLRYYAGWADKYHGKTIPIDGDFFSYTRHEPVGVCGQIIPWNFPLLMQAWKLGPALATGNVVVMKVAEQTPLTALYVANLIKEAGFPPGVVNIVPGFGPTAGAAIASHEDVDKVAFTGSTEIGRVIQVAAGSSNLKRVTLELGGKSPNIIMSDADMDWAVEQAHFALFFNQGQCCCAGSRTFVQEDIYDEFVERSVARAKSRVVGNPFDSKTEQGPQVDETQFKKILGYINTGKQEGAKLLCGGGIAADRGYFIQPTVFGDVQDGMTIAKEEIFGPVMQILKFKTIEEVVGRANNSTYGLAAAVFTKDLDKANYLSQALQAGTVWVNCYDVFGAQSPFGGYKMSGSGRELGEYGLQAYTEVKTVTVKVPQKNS
Quantity name: IC50 (µM)
Give bare numbers, in µM.

Ask | Determine from records and report IC50 for Cc1ncc([N+](=O)[O-])n1CC(C)O (stereo not shown)
Reply | 503

====

Target: CYP2D6 (Homo sapiens, UniProt P10635)
Sequence (P10635 whole entry, canonical isoform): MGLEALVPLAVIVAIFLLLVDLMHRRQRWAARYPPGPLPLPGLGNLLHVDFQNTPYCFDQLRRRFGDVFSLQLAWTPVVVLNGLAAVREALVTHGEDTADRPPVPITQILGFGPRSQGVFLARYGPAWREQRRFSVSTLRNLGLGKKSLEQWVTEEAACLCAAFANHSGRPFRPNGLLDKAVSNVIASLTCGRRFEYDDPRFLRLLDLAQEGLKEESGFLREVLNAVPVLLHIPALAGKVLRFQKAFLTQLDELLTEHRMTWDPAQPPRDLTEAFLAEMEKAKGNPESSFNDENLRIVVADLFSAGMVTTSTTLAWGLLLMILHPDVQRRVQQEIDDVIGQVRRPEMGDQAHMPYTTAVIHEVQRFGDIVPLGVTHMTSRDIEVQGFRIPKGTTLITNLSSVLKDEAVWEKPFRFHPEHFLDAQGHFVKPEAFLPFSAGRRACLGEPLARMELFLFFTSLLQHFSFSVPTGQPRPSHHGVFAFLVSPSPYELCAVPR
Assay: Direct inhibition of CYP isoforms in HLM
Quantity name: IC50

Ask | Indicate the recorded IC50 value for this molecule: Cc1ncc([N+](=O)[O-])n1CC(C)O (stereo not shown)
Reply | > 5 mM

====

Biological target: CYP2C8 (Homo sapiens, UniProt P10632)
Sequence (P10632 whole entry, canonical isoform): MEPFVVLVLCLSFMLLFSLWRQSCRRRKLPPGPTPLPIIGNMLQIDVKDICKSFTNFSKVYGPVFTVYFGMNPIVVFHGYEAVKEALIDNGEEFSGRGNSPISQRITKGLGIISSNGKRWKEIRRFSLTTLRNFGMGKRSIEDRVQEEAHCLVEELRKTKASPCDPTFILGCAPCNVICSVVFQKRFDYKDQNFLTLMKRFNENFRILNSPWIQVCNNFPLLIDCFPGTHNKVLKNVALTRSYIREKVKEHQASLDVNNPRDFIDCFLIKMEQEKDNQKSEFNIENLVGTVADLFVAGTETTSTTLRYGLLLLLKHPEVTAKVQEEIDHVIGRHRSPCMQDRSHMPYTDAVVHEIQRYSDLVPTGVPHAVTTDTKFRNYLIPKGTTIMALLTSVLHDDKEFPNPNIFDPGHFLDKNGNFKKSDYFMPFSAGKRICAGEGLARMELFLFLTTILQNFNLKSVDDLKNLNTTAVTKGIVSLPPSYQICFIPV
Assay: Direct inhibition of CYP isoforms in HLM
Quantity name: IC50

Ask | Answer with reported IC50 of Cc1ncc([N+](=O)[O-])n1CC(C)O (stereo not shown)
Reply | > 5 mM

====

Biological target: CYP2C19 (Homo sapiens, UniProt P33261)
Sequence (P33261 whole entry, canonical isoform): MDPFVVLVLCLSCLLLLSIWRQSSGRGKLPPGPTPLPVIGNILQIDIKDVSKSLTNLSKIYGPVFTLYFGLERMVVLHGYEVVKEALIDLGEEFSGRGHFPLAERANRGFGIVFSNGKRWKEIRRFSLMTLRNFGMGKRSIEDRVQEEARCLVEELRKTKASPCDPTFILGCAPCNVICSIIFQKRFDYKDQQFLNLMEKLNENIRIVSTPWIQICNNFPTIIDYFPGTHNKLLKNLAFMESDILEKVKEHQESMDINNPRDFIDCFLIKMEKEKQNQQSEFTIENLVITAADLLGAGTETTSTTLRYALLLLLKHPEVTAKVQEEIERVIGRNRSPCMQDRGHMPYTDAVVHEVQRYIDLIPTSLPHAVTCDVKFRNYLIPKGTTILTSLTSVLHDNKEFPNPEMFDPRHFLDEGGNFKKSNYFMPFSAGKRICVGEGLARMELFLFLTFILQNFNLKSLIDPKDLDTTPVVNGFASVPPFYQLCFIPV
Experiment: Direct inhibition of CYP isoforms in HLM
Quantity name: IC50

Ask | Please look at this molecule and report its IC50: Cc1ncc([N+](=O)[O-])n1CC(C)O (stereo not shown)
Reply | 3.87 mM
